- Target desc: MAO-B (Homo sapiens)
- Construct: purchased Merck MAK296
- Sequence (P27338 1-520): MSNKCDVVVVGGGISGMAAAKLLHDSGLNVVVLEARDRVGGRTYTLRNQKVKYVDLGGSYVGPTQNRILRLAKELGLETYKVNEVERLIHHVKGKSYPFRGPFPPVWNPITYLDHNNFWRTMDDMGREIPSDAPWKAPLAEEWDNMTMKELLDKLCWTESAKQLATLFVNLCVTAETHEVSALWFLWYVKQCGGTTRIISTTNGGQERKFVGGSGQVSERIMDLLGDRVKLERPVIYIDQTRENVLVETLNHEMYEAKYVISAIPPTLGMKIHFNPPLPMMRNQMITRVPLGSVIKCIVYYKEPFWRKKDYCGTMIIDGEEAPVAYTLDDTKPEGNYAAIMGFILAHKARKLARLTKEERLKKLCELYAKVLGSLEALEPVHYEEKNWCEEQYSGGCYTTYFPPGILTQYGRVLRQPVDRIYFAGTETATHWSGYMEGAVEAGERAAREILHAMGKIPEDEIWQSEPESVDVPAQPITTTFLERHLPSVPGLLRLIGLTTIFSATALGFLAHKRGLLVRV
- Protocol notes: Monoamine Oxidase-B Inhibitor Screening Kit (Merck, MAK296), fluorometric assay
- Type: biochemical
- Stated conditions: concentration 10 uM
Parameter: inhibition at 10 µM (%)

Cc1csc(N/N=C/c2cc(Cl)ccc2Cl)n1 ... 0.34
Clc1ccc(/C=N/c2ccc3[nH]ncc3c2)c(Cl)c1 ... 32.5
O=c1c(-c2ccccc2)coc2cc(O)cc(O)c12 ... 39.8

P. COc1ccc(C2SCC(=O)N2NC(=O)COc2ccc3c(C)cc(=O)oc3c2)cc1 (centres unmarked)
Q. O=C(Nc1ccc(Cl)cc1)C1=Cc2ccccc2OC1
Input line: # return whichever of P and Q has the smaller inhibition at 10 µM Mark your answer with the label of the selected entry.
Output line: P
(P: 0%, Q: 51.7%)

---

- Target desc: MAO-B (Homo sapiens, UniProt P27338)
- Construct: purchased Merck MAK296
- Sequence (P27338 1-520): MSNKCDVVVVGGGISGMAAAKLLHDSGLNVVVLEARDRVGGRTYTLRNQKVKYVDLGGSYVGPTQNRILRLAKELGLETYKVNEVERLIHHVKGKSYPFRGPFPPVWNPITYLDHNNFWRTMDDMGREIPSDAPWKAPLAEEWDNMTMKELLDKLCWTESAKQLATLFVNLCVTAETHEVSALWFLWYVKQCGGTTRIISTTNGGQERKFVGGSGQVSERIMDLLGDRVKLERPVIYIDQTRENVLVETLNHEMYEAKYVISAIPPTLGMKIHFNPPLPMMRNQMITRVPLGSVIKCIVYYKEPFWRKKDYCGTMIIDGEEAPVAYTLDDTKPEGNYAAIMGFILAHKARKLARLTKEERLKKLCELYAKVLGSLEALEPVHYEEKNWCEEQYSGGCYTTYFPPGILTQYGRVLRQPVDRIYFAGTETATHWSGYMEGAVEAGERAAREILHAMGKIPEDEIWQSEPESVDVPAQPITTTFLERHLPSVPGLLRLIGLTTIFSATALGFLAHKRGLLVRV
- Protocol notes: Monoamine Oxidase-B Inhibitor Screening Kit (Merck, MAK296), fluorometric assay
- Assay type: biochemical
- Stated conditions: concentration 10 uM
Parameter: inhibition at 10 µM (%)

Worked examples follow.
Cc1cc(=O)oc2cc(OCC(=O)N/N=C/c3ccccc3)ccc12 ... 0
O=c1oc2cc(OCc3cccc(Cl)c3)ccc2c2c1CCC2 ... 98.4

P. Cc1ccc(/C=N/Nc2nc3ccccc3nc2Cc2ccccc2)cc1
Q. CCc1ccc(Nc2ncc3c(n2)CC(C)CC3=O)cc1 (stereo not shown)
Input line: # return whichever of P and Q has the smaller inhibition at 10 µM Mark your answer with the label of the selected entry.
Output line: P
(P: 0%, Q: 83.7%)
